Tested on: pENSA
test_name: pENSA level by immunofluorescence (described method: in vitro kinase analysis with GST-tag-MASTL and His-tag-ENSA)
Type: cell-based
measurement_conditions: compound 1 µM
reported_property: pENSA (%) Immunofluor ecense (1 µM)

molecule	val
COc1ccc(CNc2nc(Nc3cc(C4CC4)[nH]n3)c3ccccc3n2)cc1	143
NCCNC(=O)c1ccc(Nc2nc(Nc3cc(C4CC4)[nH]n3)c3ccccc3n2)cc1	142.5
CC(C)C(=O)N1CC2CC1CN2c1nc(Nc2cc(C3CC3)[nH]n2)c2ccccc2n1 (stereo not shown) [compound 15d]	68.6
O=S(=O)(c1ccc(F)cc1F)N1CC2CCC1CN2c1nc(Nc2cc(C3CC3)[nH]n2)c2ccccc2n1 (stereo not shown) [compound 24c]	24.3
Cc1cc(Nc2nc(N3CC4CC3CN4C(=O)c3ccccc3)nc3ccccc23)n[nH]1 (stereo not shown) [compound 27d]	60.6
CC(C)(C)OC(=O)NCCCCNC(=O)c1ccc(Nc2nc(Nc3cc(C4CC4)[nH]n3)c3ccccc3n2)cc1	164
CC(C)(C)OC(=O)c1ccc(Nc2nc(Nc3cc(C4CC4)[nH]n3)c3ccccc3n2)cc1	56.2
O=S(=O)(c1cccc(C(F)(F)F)c1)N1CC2CC1CN2c1nc(Nc2cc(C3CC3)[nH]n2)c2ccccc2n1 (stereo not shown) [compound 15u]	100
c1ccc(CN2CC3CC2CN3c2nc(Nc3cn[nH]c3)c3ccccc3n2)cc1 (stereo not shown) [compound 28f]	85.1
NC(=O)c1ccc(Nc2nc(Nc3cc(C4CC4)[nH]n3)c3ccccc3n2)cc1	0.9
O=S(=O)(c1ccc(F)cc1F)N1CC2CC1CN2c1nc(Nc2cc(C3CC3)[nH]n2)c2ccccc2n1 (stereo not shown) [compound 15o]	90.3
Cc1ccc(-c2nc3ccccc3s2)cc1Nc1nc(Nc2cc(C3CC3)[nH]n2)c2ccccc2n1	88.6
CC(C)(C)OC(=O)N1CCC2(CC1)CCN(c1nc(Nc3cc(C4CC4)[nH]n3)c3ccccc3n1)CC2	98.2
CCNC(=O)N1CC2CC1CN2c1nc(Nc2cc(C3CC3)[nH]n2)c2ccccc2n1 (stereo not shown) [compound 15a]	86.1
CNS(=O)(=O)c1ccc(Nc2nc(Nc3cc(C4CC4)[nH]n3)c3ccccc3n2)cc1	17.1
Fc1cc(Br)ccc1Nc1nc(Nc2cc(C3CC3)[nH]n2)c2ccccc2n1	69
